ASSAY_READOUT: melting point

>>> result("O=C(O)C(=O)O.c1ccc2c(c1)COC21CCN(CCC2CCCc3sccc32)CC1 (centres unmarked)")
"172 to 176 °C"
>>> result("CN1CCC2(CCN(CCC3CCCc4sccc43)CC2)C1=O.O=C(O)C(=O)O (centres unmarked)")
"140 to 142 °C"
>>> result("CC1CCN(C/C=C2\\CCCc3sccc32)CC1.O=C(O)C(=O)O")
"139 to 141 °C"

Quick check: melting point of COc1ccc2c(c1)CN(CCC1CCCc3sccc31)CC2.O=C(O)C(=O)O (centres unmarked) ?
200 to 201 °C

Quick check: melting point of O=C(O)C(=O)O.O=C1OC2(CCN(CCC3CCCc4sccc43)CC2)c2ccccc21 (centres unmarked) ?
186 to 189 °C

These entries and their values trace back to patent US8227625B2.
